Molecular target: T1, Human eIF4E (aa 28-217) with a C-terminal His tag (human, UniProt P06730 28-217)
T1 construct: also called HH-eIF4E; eukaryotic initiation factor 4E
T1 sequence (P06730 other isoform, or with tags, fused parts or gaps limits assumed): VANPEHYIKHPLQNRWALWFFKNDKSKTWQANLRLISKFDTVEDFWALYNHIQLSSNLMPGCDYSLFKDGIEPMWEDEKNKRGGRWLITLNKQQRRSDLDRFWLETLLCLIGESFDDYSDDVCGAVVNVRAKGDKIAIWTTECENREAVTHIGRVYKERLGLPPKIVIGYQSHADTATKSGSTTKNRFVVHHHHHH
Test: TR-FRET competition vs biotin-4G2 peptide on HH-eIF4E;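 also: peptide inhibitors measured in sodium phosphate buffer at pH 6.5 containing KCl, DTT, NP40 and gammaglobulin, with a 20 min incubation at room temperature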
Square brackets hold non-standard residues; d marks the D form. Nle = CCCC[C@H](N)C(=O)O
property: pIC50
Just so you know, pIC50 here is -log10 of the concentration in molar units; reply with that number alone.

GET /values?readout=pIC50&item= Ac-YDREFLLDFQFM-NH2 [peptide of SEQ ID NO: 68]
4.88

GET /values?readout=pIC50&item= Ac-KQYDREFLLDFQFMAA-NH2 [peptide of SEQ ID NO: 57]
5.16

GET /values?readout=pIC50&item= Ac-YDREFLLDFQFMPA-NH2 [peptide of SEQ ID NO: 82]
5.12

GET /values?readout=pIC50&item= Ac-[dK]QYDREFLLDFQFMPA-NH2 [peptide of SEQ ID NO: 83]
5.78

GET /values?readout=pIC50&item= Ac-F[5Ava]LLAFQF[Nle]-NH2 [peptide of SEQ ID NO: 79]
5.03

GET /values?readout=pIC50&item= Ac-KRKRFDREFLLAFQF[Nle]-NH2 (SMILES CCCC[C@H](NC(=O)[C@H](Cc1ccccc1)NC(=O)[C@H](CCC(N)=O)NC(=O)[C@H](Cc1ccccc1)NC(=O)[C@H](C)NC(=O)[C@H](CC(C)C)NC(=O)[C@H](CC(C)C)NC(=O)[C@H](Cc1ccccc1)NC(=O)[C@H](CCC(=O)O)NC(=O)[C@H](CCCNC(=N)N)NC(=O)[C@H](CC(=O)O)NC(=O)[C@H](Cc1ccccc1)NC(=O)[C@H](CCCNC(=N)N)NC(=O)[C@H](CCCCN)NC(=O)[C@H](CCCNC(=N)N)NC(=O)[C@H](CCCCN)NC(C)=O)C(N)=O) [peptide of SEQ ID NO: 85]
6.49

GET /values?readout=pIC50&item= Ac-KQYDREFLLDFQFMP-NH2 [peptide of SEQ ID NO: 53]
5.13

GET /values?readout=pIC50&item= Ac-KQYDRAFLLDFQFMPA-NH2 [peptide of SEQ ID NO: 60]
5.03

Where these numbers come from: patent US20150166621A1
